Experiment: ABTS radical cation scavenging (decolorization) assay
Format: biochemical
Details: mean ± SEM, n = 3; 1 h incubation; relative to Trolox
Assign ABTS TEAC (Trolox equivalent antioxidant capacity) to each entry below.
State just the number; it will be interpreted in TEAC.

Consider the compound Cl.Nc1c(C(F)(F)C(F)(F)C(F)(F)F)n[nH]c1O.O [4h] . State its measured ABTS TEAC (Trolox equivalent antioxidant capacity).
0.78

Indicate its recorded ABTS TEAC (Trolox equivalent antioxidant capacity); the compound in question is Oc1cc(C(F)(F)F)nn1-c1ccccc1 [CF3-EDA, 3-trifluoromethyl-1-phenylpyrazol-5-ol, reference compound]
0.95

Determine its reported ABTS TEAC (Trolox equivalent antioxidant capacity): Cc1nn(-c2ccccc2)c(O)c1N.Cl.O [4d]
0.93

Fill in ABTS TEAC (Trolox equivalent antioxidant capacity) for record Cl.Nc1c(C(F)(F)C(F)(F)F)nn(-c2ccccc2)c1O.O [4b]
0.6

---

Test: FRAP (ferric reducing antioxidant power) assay
Format: biochemical
Conditions: mean ± SEM, n = 3; 1 h, 37 °C, pH 3.6
property-name: FRAP TE (Trolox equivalent)
Note: a bare number is incomplete; add the unit.

Answer with the recorded FRAP TE (Trolox equivalent) of `Cl.Nc1c(C(F)(F)C(F)(F)C(F)(F)C(F)(F)F)n[nH]c1O.O` only.
0.75 ± 0.05 TE

Provide one value: measured FRAP TE (Trolox equivalent) of `CC1=NNC(=O)/C1=N\O`
0.09 ± 0.01 TE

Look up FRAP TE (Trolox equivalent) of Cc1c(C)c2c(c(C)c1O)CCC(C)(C(=O)O)O2 (stereo not drawn) [Trolox, reference compound] and report it.
1.0 TE

Determine its reported FRAP TE (Trolox equivalent): `Cc1nn(-c2ccccc2)c(O)c1N.Cl.O`
0.98 ± 0.08 TE

Item `Cl.Nc1c(C(F)(F)C(F)(F)F)nn(-c2ccccc2)c1O.O` : provide FRAP TE (Trolox equivalent)
0.75 ± 0.07 TE

Determine from records and report FRAP TE (Trolox equivalent) for `Nc1c(C(F)(F)C(F)(F)C(F)(F)C(F)(F)F)nn(-c2ccccc2)c1O`
0.98 ±0.05 TE

---

Kindly supply the reported FRAP TE (Trolox equivalent) values for the records listed here.
Assay: FRAP (ferric reducing antioxidant power) assay
Assay type: biochemical
Conditions: mean ± SEM, n = 3; 1 h, 37 °C, pH 3.6
Quick reminder: number only, in TE, skip the unit.

Given the compound Cl.Nc1c(C(F)(F)C(F)F)n[nH]c1O.O [4f] , write its reported FRAP TE (Trolox equivalent).
0.62

Read the entry Cl.Nc1c(C(F)(F)F)nn(-c2ccccc2)c1O [4a] and write its reported FRAP TE (Trolox equivalent).
0.89

Determine its reported FRAP TE (Trolox equivalent): Cl.Nc1c(C(F)(F)C(F)(F)F)n[nH]c1O.O [4g]
0.88

Annotate the compound O=C1/C(=N\O)C(C(F)(F)C(F)(F)C(F)(F)C(F)(F)F)=NN1c1ccccc1 [1c] with its measured FRAP TE (Trolox equivalent).
0.06

Tell me its FRAP TE (Trolox equivalent) given Cl.Nc1c(C(F)(F)F)n[nH]c1O [4e] as the entry.
1.02

Using the record for O=C1/C(=N\O)C(C(F)(F)C(F)(F)F)=NN1c1ccccc1 [1b] , state its measured FRAP TE (Trolox equivalent).
0.06

---

Hi there, I'd appreciate the recorded ABTS TEAC (Trolox equivalent antioxidant capacity) for every entry that follows.
Test: ABTS radical cation scavenging (decolorization) assay
Type: biochemical
Conditions: mean ± SEM, n = 3; 1 h incubation; relative to Trolox
Field format: number, assumed TEAC, no unit text.

For the compound Cc1c(C)c2c(c(C)c1O)CCC(C)(C(=O)O)O2 (stereo not shown) [Trolox, reference compound] , give its reported ABTS TEAC (Trolox equivalent antioxidant capacity).
1.0

Given the compound `Nc1c(C(F)(F)C(F)(F)C(F)(F)C(F)(F)F)nn(-c2ccccc2)c1O` , write its reported ABTS TEAC (Trolox equivalent antioxidant capacity).
0.85

Give the measured ABTS TEAC (Trolox equivalent antioxidant capacity) for `Cl.Nc1c(C(F)(F)C(F)(F)F)n[nH]c1O.O`
0.73

Return ABTS TEAC (Trolox equivalent antioxidant capacity) for the following compound: `Cl.Nc1c(C(F)(F)C(F)F)n[nH]c1O.O`
0.50

Return ABTS TEAC (Trolox equivalent antioxidant capacity) (reported value) for this compound: O=c1c(O)c(-c2ccc(O)c(O)c2)oc2cc(O)cc(O)c12 [Quercetin, reference compound]
1.20

Please supply the value of reported ABTS TEAC (Trolox equivalent antioxidant capacity) for the item `Cc1n[nH]c(O)c1N.Cl`
0.95

Please list ABTS TEAC (Trolox equivalent antioxidant capacity) recorded for the compound `Cl.Nc1c(C(F)(F)C(F)(F)C(F)(F)C(F)(F)F)n[nH]c1O.O`
0.45

Tell me its ABTS TEAC (Trolox equivalent antioxidant capacity) given `Cl.Nc1c(C(F)(F)F)nn(-c2ccccc2)c1O` as the entry.
0.75

Answer with the recorded ABTS TEAC (Trolox equivalent antioxidant capacity) for the compound listed here: `Cl.Nc1c(C(F)(F)F)n[nH]c1O`
0.92

---

Would you mind telling me the reported IC50 of each entry?
System: porcine liver CES
Experiment: Inhibition of CES (4-nitrophenol acetate hydrolysis)
Assay type: biochemical
Conditions: ± SEM, n = 3
Number first, unit second: that is the form wanted.

Give the reported value of IC50 for this record: `Cc1nn(-c2ccccc2)c(O)c1N.Cl.O`
98.7 µM

Indicate the recorded IC50 value for this molecule: `Cl.Nc1c(C(F)(F)F)nn(-c2ccccc2)c1O`
44.9 µM

For the molecule `Cl.Nc1c(C(F)(F)C(F)(F)C(F)(F)F)n[nH]c1O.O` , report IC50.
81.8 µM

---

I'd be grateful if you could share measured FRAP TE (Trolox equivalent) for these entries.
Test: FRAP (ferric reducing antioxidant power) assay
Assay type: biochemical
Settings: mean ± SEM, n = 3; 1 h, 37 °C, pH 3.6
Answer with the number, then the unit.

Report FRAP TE (Trolox equivalent), nothing else, for this compound: O=c1c(O)c(-c2ccc(O)c(O)c2)oc2cc(O)cc(O)c12 [Quercetin, reference compound]
4.99 ± 0.02 TE

Tell me FRAP TE (Trolox equivalent) reported for Cc1n[nH]c(O)c1N.Cl [4j]
1.04 ± 0.04 TE

Answer with reported FRAP TE (Trolox equivalent) of Cl.Nc1c(C(F)(F)C(F)(F)C(F)(F)F)n[nH]c1O.O [4h]
1.03 ± 0.04 TE

Look up and state reported FRAP TE (Trolox equivalent) for Oc1cc(C(F)(F)F)nn1-c1ccccc1 [CF3-EDA, 3-trifluoromethyl-1-phenylpyrazol-5-ol, reference compound]
0.63 ± 0.03 TE

Give FRAP TE (Trolox equivalent) for O=C1NN=C(C(F)(F)F)/C1=N/O [1e]
0.07 ± 0.01 TE

Answer with reported FRAP TE (Trolox equivalent) of O=C1NN=C(C(F)(F)C(F)(F)F)/C1=N/O [1g]
0.13 ± 0.01 TE

---

Target: human erythrocyte AChE (Homo sapiens)
Construct: Human erythrocyte acetylcholinesterase (AChE, EC 3.1.1.7); purchased Sigma-Aldrich (Saint Louis, MO, USA); host or cells: human erythrocytes
Sequence (P22303 32-617 isoform P22303-2 limits assumed): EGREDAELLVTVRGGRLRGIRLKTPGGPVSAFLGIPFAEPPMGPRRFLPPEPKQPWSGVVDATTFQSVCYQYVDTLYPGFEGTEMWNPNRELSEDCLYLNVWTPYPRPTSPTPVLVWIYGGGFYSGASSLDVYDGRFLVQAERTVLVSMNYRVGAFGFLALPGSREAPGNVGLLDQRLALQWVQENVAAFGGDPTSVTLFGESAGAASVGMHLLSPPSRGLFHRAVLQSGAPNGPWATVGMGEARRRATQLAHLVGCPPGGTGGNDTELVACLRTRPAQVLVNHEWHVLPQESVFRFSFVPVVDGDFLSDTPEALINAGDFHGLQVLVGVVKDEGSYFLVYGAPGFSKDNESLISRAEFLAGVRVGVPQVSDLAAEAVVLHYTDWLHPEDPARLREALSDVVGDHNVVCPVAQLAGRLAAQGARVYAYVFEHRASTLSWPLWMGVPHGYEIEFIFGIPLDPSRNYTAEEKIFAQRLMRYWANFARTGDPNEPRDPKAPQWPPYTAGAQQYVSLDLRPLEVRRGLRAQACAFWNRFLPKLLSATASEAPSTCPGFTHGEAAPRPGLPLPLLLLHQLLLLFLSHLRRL
Test: Inhibition of AChE (Ellman's colorimetric assay)
Assay type: biochemical
Conditions: read-out: AChE % inhibition at 20 μM
Give inhibition at 20 µM for every item shown.
A number alone suffices; assume %.

Please indicate recorded inhibition at 20 µM of Cl.Nc1c(C(F)(F)C(F)(F)F)n[nH]c1O.O [4g] measured with human erythrocyte AChE (Homo sapiens).
17.3

State measured inhibition at 20 µM of the compound CC1=NN(c2ccccc2)C(=O)/C1=N\O [1d] with human erythrocyte AChE (Homo sapiens).
4.9

Give human erythrocyte AChE (Homo sapiens) inhibition at 20 µM for the following compound: O=C1/C(=N\O)C(C(F)(F)C(F)(F)C(F)(F)C(F)(F)F)=NN1c1ccccc1 [1c]
11.5

State inhibition at 20 µM (human erythrocyte AChE (Homo sapiens)) of Cl.Nc1c(C(F)(F)C(F)(F)F)nn(-c2ccccc2)c1O.O [4b] .
4.4

Please respond with reported inhibition at 20 µM (system human erythrocyte AChE (Homo sapiens)) for Nc1c(C(F)(F)C(F)(F)C(F)(F)C(F)(F)F)nn(-c2ccccc2)c1O [4c] .
19.2

Determine reported inhibition at 20 µM for Cl.Nc1c(C(F)(F)C(F)F)n[nH]c1O.O [4f] ; test system: human erythrocyte AChE (Homo sapiens).
17.3

Tell me inhibition at 20 µM of O=C1NN=C(C(F)(F)C(F)(F)C(F)(F)F)/C1=N/O [1h] when tested on human erythrocyte AChE (Homo sapiens).
5.3

State measured inhibition at 20 µM of the compound O=C1/C(=N\O)C(C(F)(F)C(F)(F)F)=NN1c1ccccc1 [1b] with human erythrocyte AChE (Homo sapiens).
11.9

System human erythrocyte AChE (Homo sapiens). Read-out inhibition at 20 µM. Item O=C1NN=C(C(F)(F)C(F)F)/C1=N/O [1f] . Report value.
6.8

Lab note: human erythrocyte AChE (Homo sapiens) assay, enter inhibition at 20 µM for Cl.Nc1c(C(F)(F)C(F)(F)C(F)(F)C(F)(F)F)n[nH]c1O.O [4i] here
5.1

Would you please give the reported inhibition at 20 µM of Cc1nn(-c2ccccc2)c(O)c1N.Cl.O [4d] with human erythrocyte AChE (Homo sapiens)?
6.5
